Parameter: MIC. Scope: all listed entries.
- Test system: Enterococcus faecalis
- protocolNotes: In vitro minimum inhibitory concentration against Streptococcus faecalis ATCC 7080
- Type: functional
Record the value in µg/mL, omitting the unit from your answer.

Incoming: Look at this compound and give its reported MIC. CC(=O)N[C@@H]1[C@H](O[C@@H]2c3ccc(c(Cl)c3)Oc3cc4cc(c3O)Oc3ccc(cc3Cl)C[C@H]3NC(=O)[C@H](N)c5ccc(O)c(c5)Oc5cc(O)cc(c5)[C@H](NC3=O)C(=O)N[C@H]4C(=O)N[C@H]3C(=O)N[C@@H]2C(=O)N[C@H](C(=O)N2CCN(C)CC2)c2cc(O)cc(O[C@H]4O[C@H](CO)[C@@H](O)[C@@H](O)[C@@H]4O)c2-c2cc3ccc2O)O[C@@H](CO)[C@@H](O)[C@@H]1O
Outgoing: 2

Incoming: Look at this compound and give its reported MIC. CCN(CC)CCCNC(=O)[C@H]1NC(=O)[C@H]2NC(=O)[C@H](NC(=O)[C@@H]3NC(=O)[C@H]4NC(=O)[C@@H](Cc5ccc(c(Cl)c5)Oc5cc3cc(c5O)Oc3ccc(cc3Cl)[C@H]2O[C@@H]2O[C@@H](CO)[C@@H](O)[C@H](O)[C@@H]2NC(C)=O)NC(=O)[C@H](N)c2ccc(O)c(c2)Oc2cc(O)cc4c2)c2ccc(O)c(c2)-c2c(O[C@H]3O[C@H](CO)[C@@H](O)[C@@H](O)[C@@H]3O)cc(O)cc21
Outgoing: 0.5

###

- Tested on: Streptococcus pneumoniae
- protocolNotes: In vitro minimum inhibitory concentration against Streptococcus pneumoniae UC41
- Format: functional
Parameter: MIC. Scope: all listed entries.
Your answer should be a number followed by the unit of measure.

CC(=O)N[C@@H]1[C@H](O[C@@H]2c3ccc(c(Cl)c3)Oc3cc4cc(c3O)Oc3ccc(cc3Cl)C[C@H]3NC(=O)[C@H](N)c5ccc(O)c(c5)Oc5cc(O)cc(c5)[C@H](NC3=O)C(=O)N[C@H]4C(=O)N[C@H]3C(=O)N[C@@H]2C(=O)N[C@H](C(=O)NCCN2CCCC2)c2cc(O)cc(O[C@H]4O[C@H](CO)[C@@H](O)[C@@H](O)[C@@H]4O)c2-c2cc3ccc2O)O[C@@H](CO)[C@@H](O)[C@@H]1O 0.5 mg/L
CCNCCNC(=O)[C@H]1NC(=O)[C@H]2NC(=O)[C@H](NC(=O)[C@@H]3NC(=O)[C@H]4NC(=O)[C@@H](Cc5ccc(c(Cl)c5)Oc5cc3cc(c5O[C@@H]3O[C@@H](CO)[C@@H](O)[C@H](O)[C@@H]3NC(=O)CCCCCCC(C)C)Oc3ccc(cc3Cl)[C@H]2O[C@@H]2O[C@@H](CO)[C@@H](O)[C@H](O)[C@@H]2NC(C)=O)NC(=O)[C@H](N)c2ccc(O)c(c2)Oc2cc(O)cc4c2)c2ccc(O)c(c2)-c2c(O[C@H]3O[C@H](CO)[C@@H](O)[C@@H](O)[C@@H]3O)cc(O)cc21 0.12 mg/L
CC(=O)N[C@@H]1[C@H](O[C@@H]2c3ccc(c(Cl)c3)Oc3cc4cc(c3O[C@@H]3O[C@@H](CO)[C@@H](O)[C@H](O)[C@@H]3NC(=O)CCCCCCC(C)C)Oc3ccc(cc3Cl)C[C@H]3NC(=O)[C@H](N)c5ccc(O)c(c5)Oc5cc(O)cc(c5)[C@H](NC3=O)C(=O)N[C@H]4C(=O)N[C@H]3C(=O)N[C@@H]2C(=O)N[C@H](C(=O)N2CCN(C)CC2)c2cc(O)cc(O[C@H]4O[C@H](CO)[C@@H](O)[C@@H](O)[C@@H]4O)c2-c2cc3ccc2O)O[C@@H](CO)[C@@H](O)[C@@H]1O 0.12 mg/L
CC(=O)N[C@@H]1[C@H](O[C@@H]2c3ccc(c(Cl)c3)Oc3cc4cc(c3O)Oc3ccc(cc3Cl)C[C@H]3NC(=O)[C@H](N)c5ccc(O)c(c5)Oc5cc(O)cc(c5)[C@H](NC3=O)C(=O)N[C@H]4C(=O)N[C@H]3C(=O)N[C@@H]2C(=O)N[C@H](C(=O)O)c2cc(O)cc(O)c2-c2cc3ccc2O)O[C@@H](CO)[C@@H](O)[C@@H]1O 1 mg/L

Incoming: Look at this compound and give its reported MIC. CCCCN(CCCC)CCCNC(=O)[C@H]1NC(=O)[C@H]2NC(=O)[C@H](NC(=O)[C@@H]3NC(=O)[C@H]4NC(=O)[C@@H](Cc5ccc(c(Cl)c5)Oc5cc3cc(c5O)Oc3ccc(cc3Cl)[C@H]2O[C@@H]2O[C@@H](CO)[C@@H](O)[C@H](O)[C@@H]2NC(C)=O)NC(=O)[C@H](N)c2ccc(O)c(c2)Oc2cc(O)cc4c2)c2ccc(O)c(c2)-c2c(O[C@H]3O[C@H](CO)[C@@H](O)[C@@H](O)[C@@H]3O)cc(O)cc21
Outgoing: 0.5 mg/L

Incoming: Look at this compound and give its reported MIC. CC(=O)N[C@@H]1[C@H](O[C@@H]2c3ccc(c(Cl)c3)Oc3cc4cc(c3O[C@@H]3O[C@@H](CO)[C@@H](O)[C@H](O)[C@@H]3NC(=O)CCCCCCC(C)C)Oc3ccc(cc3Cl)C[C@H]3NC(=O)[C@H](N)c5ccc(O)c(c5)Oc5cc(O)cc(c5)[C@H](NC3=O)C(=O)N[C@H]4C(=O)N[C@H]3C(=O)N[C@@H]2C(=O)N[C@H](C(=O)NCCCN2CCOCC2)c2cc(O)cc(O[C@H]4O[C@H](CO)[C@@H](O)[C@@H](O)[C@@H]4O)c2-c2cc3ccc2O)O[C@@H](CO)[C@@H](O)[C@@H]1O
Outgoing: 0.06 mg/L

Incoming: Look at this compound and give its reported MIC. CCNCCNC(=O)[C@H]1NC(=O)[C@H]2NC(=O)[C@H](NC(=O)[C@@H]3NC(=O)[C@H]4NC(=O)[C@@H](Cc5ccc(c(Cl)c5)Oc5cc3cc(c5O)Oc3ccc(cc3Cl)[C@H]2O)NC(=O)[C@H](N)c2ccc(O)c(c2)Oc2cc(O)cc4c2)c2ccc(O)c(c2)-c2c(O)cc(O)cc21
Outgoing: 0.12 mg/L

Incoming: Look at this compound and give its reported MIC. N[C@H]1C(=O)N[C@@H]2Cc3ccc(c(Cl)c3)Oc3cc4cc(c3O)Oc3ccc(cc3Cl)[C@@H](O)[C@@H]3NC(=O)[C@H](NC(=O)[C@@H]4NC(=O)[C@@H](NC2=O)c2cc(O)cc(c2)Oc2cc1ccc2O)c1ccc(O)c(c1)-c1c(O)cc(O)cc1[C@@H](C(=O)NCCCN1CCOCC1)NC3=O
Outgoing: 0.12 mg/L

Incoming: Look at this compound and give its reported MIC. NCCCCNC(=O)[C@H]1NC(=O)[C@H]2NC(=O)[C@H](NC(=O)[C@@H]3NC(=O)[C@H]4NC(=O)[C@@H](Cc5ccc(c(Cl)c5)Oc5cc3cc(c5O)Oc3ccc(cc3Cl)[C@H]2O)NC(=O)[C@H](N)c2ccc(O)c(c2)Oc2cc(O)cc4c2)c2ccc(O)c(c2)-c2c(O)cc(O)cc21
Outgoing: 0.12 mg/L
